# Tested on: HCT-15 colon
# EXPERIMENT DESCRIPTION: NCI tumour cell line growth inhibition, 48 h
QUANTITY NAME: TGI (µM)
Give bare numbers, in µM.

# COMPOUND, QUANTITY NAME, RESULT UNITS, REPORTED
data = [
    ("CCN(CC)CCOc1ccc(C2=C(c3ccccc3)CCc3cc(OC)ccc32)cc1", "TGI", "µM", 4.06),
]

(Q) Look up and report measured TGI (HCT-15 colon) for the following compound: CC1(C)CC2(C)OC2C2(C1)N=NC(=Nc1ccccc1)O2 (stereo not given)
(A) 4.62

---

# System: SW-620 colon
# EXPERIMENT DESCRIPTION: NCI tumour cell line growth inhibition, 48 h
QUANTITY NAME: TGI

State the recorded TGI for every item in the following list.
1. C[C@H](NC(=O)CCC(F)(F)F)C(=O)N[C@@H]1C(=O)N(CCO)c2ncccc2-c2ccccc21
2. CSc1nc2c(ncn2C2OCC(O)C(O)C2O)c(=O)[nH]1 (centres undefined)
3. COc1cc2cc3c4c(cc(OC)c(OC)c4c2cc1OC)CCN3C(=O)OCCBr
4. C=C1c2nc3ccccc3n2C=C(c2ccccc2)N1c1ccc(OC)cc1

(A)
1: > 100 µM; 2: > 100 µM; 3: > 100 µM; 4: > 100 µM

---

Assignment: determine reported TGI for the given compounds.
# System: CCRF-CEM leukemia
# EXPERIMENT DESCRIPTION: NCI tumour cell line growth inhibition, 48 h

# COMPOUND, ASSAYED TARGET, TGI
rows = [
    ("O=C(CCCN1CCc2[nH]c3cc(F)ccc3c2C1)c1ccc(F)cc1", "CCRF-CEM leukemia", "30.9 µM"),
    ("CN(C)CCNC(=O)c1cccc2c(NC(CS)C(=O)O)c3ccccc3nc12 (stereo unspecified)", "CCRF-CEM leukemia", "> 100 µM"),
    ("CC(=O)C1=C(O)/C(=C\\c2ccco2)OC1=O", "CCRF-CEM leukemia", "> 10 µM"),
    ("CC(C)[Si]1(C(C)C)OCC2OC(n3cnc4c(N)ncnc43)C(N)C2O[Si](C(C)C)(C(C)C)O1 (stereo unspecified)", "CCRF-CEM leukemia", "> 71.6 µM"),
    ("O=C1c2cccc3cccc(c23)C(=O)N1CCCN1CCN(CCCN2C(=O)c3cccc4cccc(c34)C2=O)CC1", "CCRF-CEM leukemia", "> 100 µM"),
    ("O=C(CN=Cc1cccs1)CSC(c1ccccc1)c1ccccc1", "CCRF-CEM leukemia", "> 100 µM"),
    ("CCCCCCCCCCCCCCCC(=O)OCC1OC(n2ccc(N)nc2=O)C(O)C1O (stereo unspecified)", "CCRF-CEM leukemia", "8.85 µM"),
    ("C/C(=N/Nc1ccc([N+](=O)[O-])cc1[N+](=O)[O-])C(CC(C(=O)Nc1ccccc1C)/C(C)=N\\Nc1ccc([N+](=O)[O-])cc1[N+](=O)[O-])C(=O)Nc1ccccc1C (stereo unspecified)", "CCRF-CEM leukemia", "> 100 µM"),
]

State the recorded TGI for every item in the following list.
1. COc1ccc(CC2C(=O)NC(C)C(=O)N(C)C3Cc4ccc(cc4)Oc4cc(ccc4O)CC(C(=O)NC(C)C(=O)NC(C)C(=O)N2C)N(C)C3=O)cc1 (stereo unspecified)
2. CCCCCCCCCCCCNC(=O)[C@H]1CSC(c2ccc(OC)c(F)c2)N1 (stereo partly specified)
3. Cc1cc2c(cc1Cl)SC1=NN(C)C(c3ccccc3O)N1S2(=O)=O (stereo unspecified)
4. C[C@]12CC[C@@H]3c4ccc(O)cc4CC[C@H]3[C@@H]1CC[C@@H]2NS(=O)(=O)c1ccc(-c2ccccc2)cc1
5. C=C(C)[C@@H]1CCC[C@]2(C(=O)O)CC[C@]3(C)[C@@H](CC[C@@H]4[C@@]5(C)C/C(=C/c6ccncc6)C(=O)C(C)(C)[C@@H]5CC[C@]43C)[C@@H]12
6. COc1ccc(N(Cc2cc(OC)c(OC)c(OC)c2)C2OC(=O)c3ccccc32)cc1 (stereo unspecified)

(A)
["0.122 µM", "0.579 µM", "> 100 µM", "> 100 µM", "> 100 µM", "> 100 µM"]

State the recorded TGI for every item in the following list.
1. COC1=CC2(C=CC1=O)CCN=c1c(O)c3c(c(O)c12)=NC=N3 (stereo unspecified)
2. C#Cc1cccc(Nc2ncnc3ccc(-c4cncc(NS(C)(=O)=O)c4)cc23)c1

(A)
1: > 100 µM; 2: 7.31 µM
